# Tested on: Escherichia coli 37.4
# Experimental Details: Radial diffusion assay (RDA), E. coli 37.4
# Type: cell-based
# Details: zone of inhibition; Table 2, second generation PEPscreen
Assay Metric: RDA (mm) E. coli 37.4 Mean
Record the value in mm, omitting the unit from your answer.

Reference set (3 entries):
[[record]]
substance = "CNYIEELLRQLAPASHKGLA [Peptide 148]"
target_under_test = "Escherichia coli 37.4"
unit_descriptor = "mm"
data_value = 2.900

[[record]]
substance = "Ac-CNYITELRRQHARASHLGLA-NH2 [Peptide 179]"
target_under_test = "Escherichia coli 37.4"
unit_descriptor = "mm"
data_value = 2.677

[[record]]
substance = "Ac-CNYITELLRQLARASKKGLA-NH2 [Peptide 180]"
target_under_test = "Escherichia coli 37.4"
unit_descriptor = "mm"
data_value = 5.933


Lab note: next substance to report on.
stdin: Item Ac-CNYIEELRRQLARALHKGLA-NH2 [Peptide 181] : provide RDA (mm) E. coli 37.4 Mean
stdout: 4.330
